- target-of-assay: T1, GIP receptor (human (printed as hGIPR), UniProt P48546 22-466)
- T1 sequence (looked up): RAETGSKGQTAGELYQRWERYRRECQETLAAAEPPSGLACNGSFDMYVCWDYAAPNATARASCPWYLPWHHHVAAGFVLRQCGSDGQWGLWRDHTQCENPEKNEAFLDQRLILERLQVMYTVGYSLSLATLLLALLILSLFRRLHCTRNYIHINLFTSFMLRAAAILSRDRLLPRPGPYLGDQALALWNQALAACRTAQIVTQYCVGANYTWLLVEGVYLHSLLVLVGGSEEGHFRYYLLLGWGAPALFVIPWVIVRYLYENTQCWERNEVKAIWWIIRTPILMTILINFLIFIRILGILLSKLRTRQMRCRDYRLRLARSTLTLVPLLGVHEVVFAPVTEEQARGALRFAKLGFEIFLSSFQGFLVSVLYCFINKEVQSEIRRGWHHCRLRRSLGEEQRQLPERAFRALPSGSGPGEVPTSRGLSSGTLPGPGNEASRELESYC
- test-description: cell-based or functional assay
Starred links: 1 amine or outer side, 2 acyl side, 3 side chain; linkers in the order of their positions; H or OH if unused. Non-standard residues stand in square brackets, D forms with d. Groups on a side chain read outwards from the residue. No end group written: not given here. *: point of attachment. C18 diacid = O=C(O)CCCCCCCCCCCCCCCCC(=O)*; γGlu = O=C(O)[C@H](CCC(=O)[*:2])N[*:1]; Aib = CC(C)(N)C(=O)O
Attribute: EC50 hGIPR 100% hP (CreLuc)

Use these answered entries as a reference point.
Request: Which EC50 hGIPR 100% hP (CreLuc) is listed for Y[Aib]EGTFTSDYSI[Aib]LEKQAQ[Aib]AFIEWLIK([γGlu-γGlu-γGlu-γGlu-C18 diacid])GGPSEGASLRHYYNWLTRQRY-NH2 (also: TFA salt) [Compound 247] ?
Response: 1.57 nM

Request: And the next one, YXEGTFTSDYSIXLEKQAQXAFVEWLIKGGPSSGASLLHYYNWLTRQRY (Aib at 2, 13, 20; K28 side chain carries C20DA-gGlu-gGlu-gGlu-gGlu-gGlu-gGlu-eLys; C-terminal amide) [Compound 210] ?
Response: 2.3 nM

--- query ---
Request: Which EC50 hGIPR 100% hP (CreLuc) value is on record for YXEGTFTSDYSIXLEKQAQXEFVEWLIKGGPSSGASLRHYYNWLTRQRY (Aib at 2, 13, 20; K28 side chain carries C20DA-gGlu-gGlu-gGlu-gGlu-gGlu-gGlu-eLys; C-terminal amide) [Compound 215] ?
Response: 2.94 nM
